tested on: RARb homodimer (NR concentration 270 nM); test: PBM binding z-score (relative to random genomic background probes); higher = stronger binding; sequences stand for … in GC…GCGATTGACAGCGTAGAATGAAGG
Consider the following sequences; for each one, report its PBM binding z-score.
Please reply with the number alone, leaving off any unit.

Need PBM binding z-score, item `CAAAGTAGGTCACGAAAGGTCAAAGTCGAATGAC` 6.1

Need PBM binding z-score, item `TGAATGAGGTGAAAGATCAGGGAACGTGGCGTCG` 0.154

Need PBM binding z-score, item `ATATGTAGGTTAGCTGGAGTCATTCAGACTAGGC` 0.259

Need PBM binding z-score, item `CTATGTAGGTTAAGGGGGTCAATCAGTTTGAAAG` 3.94

Need PBM binding z-score, item `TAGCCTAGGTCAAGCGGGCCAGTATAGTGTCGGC` 3.29

Need PBM binding z-score, item `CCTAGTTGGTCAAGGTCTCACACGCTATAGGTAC` 1.32

Need PBM binding z-score, item `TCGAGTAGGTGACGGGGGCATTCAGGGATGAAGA` 2.01

Need PBM binding z-score, item `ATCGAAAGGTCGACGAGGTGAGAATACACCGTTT` 3.04

Need PBM binding z-score, item `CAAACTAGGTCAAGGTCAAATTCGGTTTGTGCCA` 5.19

Need PBM binding z-score, item `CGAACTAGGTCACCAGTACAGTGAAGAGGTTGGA` 3.14

Need PBM binding z-score, item `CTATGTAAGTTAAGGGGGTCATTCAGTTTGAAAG` 3.7

Need PBM binding z-score, item `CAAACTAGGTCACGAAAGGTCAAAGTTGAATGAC` 6.02

Need PBM binding z-score, item `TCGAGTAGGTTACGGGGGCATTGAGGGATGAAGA` 2.27

Need PBM binding z-score, item `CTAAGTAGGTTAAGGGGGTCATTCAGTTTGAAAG` 3.97

Need PBM binding z-score, item `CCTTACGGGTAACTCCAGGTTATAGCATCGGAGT` 0.239

Need PBM binding z-score, item `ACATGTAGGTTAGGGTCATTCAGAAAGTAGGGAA` 3.51

Need PBM binding z-score, item `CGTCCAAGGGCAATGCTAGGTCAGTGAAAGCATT` 3.04

Need PBM binding z-score, item `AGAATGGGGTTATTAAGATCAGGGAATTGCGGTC` 1.53

Need PBM binding z-score, item `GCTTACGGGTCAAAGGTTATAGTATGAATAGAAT` 3.5

Need PBM binding z-score, item `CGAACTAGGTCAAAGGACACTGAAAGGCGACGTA` 3.06

Need PBM binding z-score, item `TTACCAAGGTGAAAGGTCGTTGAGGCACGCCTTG` 2.61

Need PBM binding z-score, item `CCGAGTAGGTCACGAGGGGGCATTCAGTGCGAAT` 4.35

Need PBM binding z-score, item `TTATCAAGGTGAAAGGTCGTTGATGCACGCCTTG` 2.42

Need PBM binding z-score, item `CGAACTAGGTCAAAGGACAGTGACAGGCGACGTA` 3.39

Need PBM binding z-score, item `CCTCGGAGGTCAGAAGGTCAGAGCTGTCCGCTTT` 5.21

Need PBM binding z-score, item `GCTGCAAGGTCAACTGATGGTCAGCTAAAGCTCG` 4.71

Need PBM binding z-score, item `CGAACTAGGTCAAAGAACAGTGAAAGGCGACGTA` 2.03

Need PBM binding z-score, item `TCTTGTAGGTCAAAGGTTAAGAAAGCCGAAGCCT` 3.84

Need PBM binding z-score, item `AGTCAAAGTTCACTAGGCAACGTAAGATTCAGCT` 3.63

Need PBM binding z-score, item `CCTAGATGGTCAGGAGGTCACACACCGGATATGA` 4.09

Need PBM binding z-score, item `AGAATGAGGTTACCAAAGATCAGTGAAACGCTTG` 0.66

Need PBM binding z-score, item `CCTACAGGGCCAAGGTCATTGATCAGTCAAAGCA` 3.47

Need PBM binding z-score, item `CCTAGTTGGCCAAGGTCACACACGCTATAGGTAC` 4.08

Need PBM binding z-score, item `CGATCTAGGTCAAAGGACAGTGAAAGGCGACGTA` 2.74

Need PBM binding z-score, item `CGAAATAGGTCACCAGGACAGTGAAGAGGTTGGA` 3.91

Need PBM binding z-score, item `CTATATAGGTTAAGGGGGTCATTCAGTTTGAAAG` 3.8

Need PBM binding z-score, item `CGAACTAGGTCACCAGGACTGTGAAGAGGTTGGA` 3.39

Need PBM binding z-score, item `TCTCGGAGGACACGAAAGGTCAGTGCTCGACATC` 4.96

Need PBM binding z-score, item `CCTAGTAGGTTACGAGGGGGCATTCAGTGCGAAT` 2.39

Need PBM binding z-score, item `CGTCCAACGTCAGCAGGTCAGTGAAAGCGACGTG` 1.92

Need PBM binding z-score, item `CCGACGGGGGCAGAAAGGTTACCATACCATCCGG` 3.29

Need PBM binding z-score, item `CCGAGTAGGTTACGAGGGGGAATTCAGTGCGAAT` 0.662

Origin of values: the supplement of paper PMC6555819
